# target-system: Deoxyhypusine synthase (BmDHS) (Brugia malayi, UniProt A0A0J9XTC4)
# Construct: full-length, recombinant BmDHS (residues 1–366)
# Sequence (A0A0J9XTC4 1-366): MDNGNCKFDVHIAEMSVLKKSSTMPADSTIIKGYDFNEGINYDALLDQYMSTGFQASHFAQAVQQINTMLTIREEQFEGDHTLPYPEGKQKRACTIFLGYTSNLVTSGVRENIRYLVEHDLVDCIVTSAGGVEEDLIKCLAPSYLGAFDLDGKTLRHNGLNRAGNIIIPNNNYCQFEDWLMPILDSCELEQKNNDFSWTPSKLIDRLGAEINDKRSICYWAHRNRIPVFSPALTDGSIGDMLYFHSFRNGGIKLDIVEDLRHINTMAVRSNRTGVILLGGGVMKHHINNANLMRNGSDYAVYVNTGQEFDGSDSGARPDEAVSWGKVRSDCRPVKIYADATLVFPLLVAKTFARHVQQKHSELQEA
# test: NADH fluorescence assay of DHS partial reaction with purified recombinant enzyme
property: IC50

compound-string	reported-value
N=C(N)NCCCCCCCN	28 nM
